target_or_test_system: UniProtKB P11473
Sequence (whole entry): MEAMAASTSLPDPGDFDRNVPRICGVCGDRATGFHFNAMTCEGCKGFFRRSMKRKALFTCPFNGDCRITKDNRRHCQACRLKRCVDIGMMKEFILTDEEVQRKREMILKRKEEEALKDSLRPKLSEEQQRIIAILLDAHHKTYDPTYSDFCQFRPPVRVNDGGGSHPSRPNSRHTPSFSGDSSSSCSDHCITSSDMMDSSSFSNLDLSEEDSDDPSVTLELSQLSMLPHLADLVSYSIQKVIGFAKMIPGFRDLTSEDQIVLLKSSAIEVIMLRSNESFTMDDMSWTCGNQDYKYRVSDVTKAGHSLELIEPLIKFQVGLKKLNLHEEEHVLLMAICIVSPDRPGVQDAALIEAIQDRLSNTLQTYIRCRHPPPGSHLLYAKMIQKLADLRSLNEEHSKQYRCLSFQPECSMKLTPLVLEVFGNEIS
test_name: Ratio of 1,25-(OH)2D3 IC50 to test compound IC50 for displacement of [3H]-1,25-(OH)2D3 from N-terminal GST-tagged human recombinant vitamin D receptor ligand binding domain expressed in Escherichia coli BL21 (DE3) pLys S after 16 hrs
parameter_measured: relative affinity (IC50 ref/IC50 test)

Here's what some known entries look like.
# compound, target_or_test_system, relative affinity (IC50 ref/IC50 test)
rows = [
    ("C=C1[C@H](O)CC(=C/C=C2\\CCC[C@]3(C)[C@@H]([C@H](C)CCCC(O)c4ccc(O)cc4)CC[C@@H]23)C[C@H]1O (stereo partly drawn)", "UniProtKB P11473", 0.0044),
    ("C=C1[C@H](O)CC(=C/C=C2\\CCC[C@]3(C)[C@@H]([C@H](C)[C@@H](CCCC)CCC(O)c4ccc(O)cc4)CC[C@@H]23)C[C@H]1O (stereo partly drawn)", "UniProtKB P11473", 0.0094),
    ("C=C1[C@H](O)CC(=C/C=C2\\CCC[C@]3(C)[C@@H]([C@H](C)CCCC(=O)c4ccc(O)cc4)CC[C@@H]23)C[C@H]1O", "UniProtKB P11473", 0.006),
    ("C=C1[C@H](O)CC(=C/C=C2\\CCC[C@]3(C)[C@@H]([C@H](C)CCCC(O)(c4ccc(O)cc4)c4ccc(O)cc4)CC[C@@H]23)C[C@H]1O", "UniProtKB P11473", 0.00096),
    ("C=C1[C@H](O)CC(=C/C=C2\\CCC[C@]3(C)[C@@H]([C@H](C)[C@@H](CCCC)CCC(=O)c4ccc(O)cc4)CC[C@@H]23)C[C@H]1O", "UniProtKB P11473", 0.028),
]

(1) C=C1[C@H](O)CC(=C/C=C2\CCC[C@]3(C)[C@@H]([C@H](C)[C@@H](CCCC)CCC(O)(c4ccc(O)cc4)c4ccc(O)cc4)CC[C@@H]23)C[C@H]1O
(2) C=C1[C@H](O)CC(=C/C=C2\CCC[C@]3(C)[C@@H]([C@H](C)[C@@H](CCCC)CCC(OC)c4ccc(O)cc4)CC[C@@H]23)C[C@H]1O (stereo partly drawn)
[in] Lower value for measured relative affinity (IC50 ref/IC50 test)? Options: 1 , 2 Please indicate the selected item by its label.
[out] 1
(1: 0.0042, 2: 0.031)

Ref: ChEMBL document CHEMBL4017538
